System: Escherichia coli TOP10
Procedure Details: shrunken log2 fold change of peptide-encoding DNA abundance (4.5 h post-induction vs induction); higher = less antimicrobial activity (less host growth inhibition)
Recorded Conditions: time post-induction: 4.5 h; library: site-saturation at positions 5, 18, 19, 20
Please enter Satisfied where shrunken log2 fold change is greater than or equal to -0.02, and Not satisfied where it is lower.

- Item Sequence: "RRIRERPPRLPRPRPRPLIHPRP"
  Class Assignment: "Not satisfied"
- Item Sequence: "RRIRYRPPRLPRPRPRPELAPRP"
  Class Assignment: "Not satisfied"
- Item Sequence: "RRIRHRPPRLPRPRPRPVTQPRP"
  Class Assignment: "Not satisfied"
- Item Sequence: "RRIRPRPPRLPRPRPRPFWQPRP"
  Class Assignment: "Satisfied"
- Item Sequence: "RRIRIRPPRLPRPRPRPVECPRP"
  Class Assignment: "Satisfied"
- Item Sequence: "RRIRDRPPRLPRPRPRPWTMPRP"
  Class Assignment: "Not satisfied"
- Item Sequence: "RRIRRRPPRLPRPRPRPKNFPRP"
  Class Assignment: "Satisfied"
- Item Sequence: "RRIRMRPPRLPRPRPRPNTVPRP"
  Class Assignment: "Not satisfied"

* * *

Tested on: Escherichia coli TOP10
Procedure Details: shrunken log2 fold change of peptide-encoding DNA abundance (4.5 h post-induction vs induction); higher = less antimicrobial activity (less host growth inhibition)
Recorded Conditions: time post-induction: 4.5 h; library: site-saturation at positions 5, 18, 19, 20

- Item Sequence: "RRIRPRPPRLPRPRPRPDDMPRP"
  shrunken log2 fold change: 0.0244
- Item Sequence: "RRIRIRPPRLPRPRPRPMQLPRP"
  shrunken log2 fold change: 3.42
- Item Sequence: "RRIRARPPRLPRPRPRPQFNPRP"
  shrunken log2 fold change: -0.0606
- Item Sequence: "RRIRNRPPRLPRPRPRPSSSPRP"
  shrunken log2 fold change: -0.0202
- Item Sequence: "RRIRGRPPRLPRPRPRPGYCPRP"
  shrunken log2 fold change: -0.183
- Item Sequence: "RRIRQRPPRLPRPRPRPNLDPRP"
  shrunken log2 fold change: 0.0163
- Item Sequence: "RRIRYRPPRLPRPRPRPRQLPRP"
  shrunken log2 fold change: -0.0472
- Item Sequence: "RRIRIRPPRLPRPRPRPYVSPRP"
  shrunken log2 fold change: -0.518
- Item Sequence: "RRIRMRPPRLPRPRPRPFNFPRP"
  shrunken log2 fold change: -0.598
- Item Sequence: "RRIRCRPPRLPRPRPRPLSMPRP"
  shrunken log2 fold change: -0.207
- Item Sequence: "RRIRYRPPRLPRPRPRPFGVPRP"
  shrunken log2 fold change: -0.306
- Item Sequence: "RRIRRRPPRLPRPRPRPKWMPRP"
  shrunken log2 fold change: 0.338
- Item Sequence: "RRIRSRPPRLPRPRPRPKQWPRP"
  shrunken log2 fold change: 0.474
- Item Sequence: "RRIRRRPPRLPRPRPRPSPAPRP"
  shrunken log2 fold change: 0.868
- Item Sequence: "RRIRRRPPRLPRPRPRPQMYPRP"
  shrunken log2 fold change: -0.183

* * *

System: Escherichia coli TOP10;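 note: peptides expressed intracellularly from a pBAD plasmid library in pooled LB shake-flask culture, induced with 0.3% L-arabinose, DNA abundance read by NGS, three biological replicates, DESeq2 with apeglm shrinkage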
Procedure Details: shrunken log2 fold change of peptide-encoding DNA abundance (4.5 h post-induction vs induction); higher = less antimicrobial activity (less host growth inhibition)
Recorded Conditions: time post-induction: 4.5 h; library: site-saturation at positions 5, 18, 19, 20
Classify by measured shrunken log2 fold change: Condition met if it is equal to or exceeds -0.01, Condition not met if it is smaller.

- Item Sequence: "RRIRSRPPRLPRPRPRPSHIPRP"
  Tested On: "Escherichia coli TOP10"
  Class Assignment: "Condition not met"
- Item Sequence: "RRIRYRPPRLPRPRPRPEQYPRP"
  Tested On: "Escherichia coli TOP10"
  Class Assignment: "Condition not met"
- Item Sequence: "RRIRFRPPRLPRPRPRPNRLPRP"
  Tested On: "Escherichia coli TOP10"
  Class Assignment: "Condition not met"
- Item Sequence: "RRIRLRPPRLPRPRPRPGHPPRP"
  Tested On: "Escherichia coli TOP10"
  Class Assignment: "Condition met"
- Item Sequence: "RRIRMRPPRLPRPRPRPTKFPRP"
  Tested On: "Escherichia coli TOP10"
  Class Assignment: "Condition met"
- Item Sequence: "RRIRIRPPRLPRPRPRPMRGPRP"
  Tested On: "Escherichia coli TOP10"
  Class Assignment: "Condition met"
- Item Sequence: "RRIRARPPRLPRPRPRPAPKPRP"
  Tested On: "Escherichia coli TOP10"
  Class Assignment: "Condition met"
- Item Sequence: "RRIRSRPPRLPRPRPRPKGAPRP"
  Tested On: "Escherichia coli TOP10"
  Class Assignment: "Condition met"
- Item Sequence: "RRIRYRPPRLPRPRPRPYMCPRP"
  Tested On: "Escherichia coli TOP10"
  Class Assignment: "Condition not met"
- Item Sequence: "RRIRERPPRLPRPRPRPGMGPRP"
  Tested On: "Escherichia coli TOP10"
  Class Assignment: "Condition not met"
- Item Sequence: "RRIRGRPPRLPRPRPRPCNWPRP"
  Tested On: "Escherichia coli TOP10"
  Class Assignment: "Condition met"
- Item Sequence: "RRIRHRPPRLPRPRPRPWHLPRP"
  Tested On: "Escherichia coli TOP10"
  Class Assignment: "Condition not met"
- Item Sequence: "RRIRSRPPRLPRPRPRPDMFPRP"
  Tested On: "Escherichia coli TOP10"
  Class Assignment: "Condition not met"
- Item Sequence: "RRIRVRPPRLPRPRPRPRWQPRP"
  Tested On: "Escherichia coli TOP10"
  Class Assignment: "Condition met"
- Item Sequence: "RRIRYRPPRLPRPRPRPIREPRP"
  Tested On: "Escherichia coli TOP10"
  Class Assignment: "Condition not met"
- Item Sequence: "RRIRMRPPRLPRPRPRPTPGPRP"
  Tested On: "Escherichia coli TOP10"
  Class Assignment: "Condition met"
- Item Sequence: "RRIRIRPPRLPRPRPRPRSKPRP"
  Tested On: "Escherichia coli TOP10"
  Class Assignment: "Condition not met"
- Item Sequence: "RRIRIRPPRLPRPRPRPHAYPRP"
  Tested On: "Escherichia coli TOP10"
  Class Assignment: "Condition not met"
- Item Sequence: "RRIRYRPPRLPRPRPRPFDAPRP"
  Tested On: "Escherichia coli TOP10"
  Class Assignment: "Condition not met"
- Item Sequence: "RRIRCRPPRLPRPRPRPGLGPRP"
  Tested On: "Escherichia coli TOP10"
  Class Assignment: "Condition met"
- Item Sequence: "RRIRPRPPRLPRPRPRPRCIPRP"
  Tested On: "Escherichia coli TOP10"
  Class Assignment: "Condition not met"
- Item Sequence: "RRIRMRPPRLPRPRPRPRKPPRP"
  Tested On: "Escherichia coli TOP10"
  Class Assignment: "Condition met"
- Item Sequence: "RRIRMRPPRLPRPRPRPACNPRP"
  Tested On: "Escherichia coli TOP10"
  Class Assignment: "Condition met"
- Item Sequence: "RRIRRRPPRLPRPRPRPHKWPRP"
  Tested On: "Escherichia coli TOP10"
  Class Assignment: "Condition met"
- Item Sequence: "RRIRNRPPRLPRPRPRPQMQPRP"
  Tested On: "Escherichia coli TOP10"
  Class Assignment: "Condition not met"
- Item Sequence: "RRIRQRPPRLPRPRPRPSSMPRP"
  Tested On: "Escherichia coli TOP10"
  Class Assignment: "Condition not met"
- Item Sequence: "RRIRSRPPRLPRPRPRPCFRPRP"
  Tested On: "Escherichia coli TOP10"
  Class Assignment: "Condition not met"
- Item Sequence: "RRIRGRPPRLPRPRPRPAMMPRP"
  Tested On: "Escherichia coli TOP10"
  Class Assignment: "Condition met"
- Item Sequence: "RRIRKRPPRLPRPRPRPLVFPRP"
  Tested On: "Escherichia coli TOP10"
  Class Assignment: "Condition met"
- Item Sequence: "RRIRTRPPRLPRPRPRPWPPPRP"
  Tested On: "Escherichia coli TOP10"
  Class Assignment: "Condition met"
- Item Sequence: "RRIRMRPPRLPRPRPRPQGYPRP"
  Tested On: "Escherichia coli TOP10"
  Class Assignment: "Condition met"

Source listed as the supplement of paper PMC9112550.
